Tested on: UACC-62 melanoma
procedure.text: NCI-60 one-dose screen, 48 h (100 = growth as untreated, 0 = no growth, -100 = all killed)
recorded.conditions: 10 µM unless noted
About 83,000 compounds went through this panel and 20% of them were active in at least one assay; those are over-represented in the sample as a whole.
measured.endpoint: growth (%)
# output: bare number, implied unit %

>>> quantitative_result("Cc1ccc(-c2cc3nc(C(Cl)Cl)nc(C)n3n2)cc1")
99.6
>>> quantitative_result("NC(N)=Nc1ccc(Oc2cccc(Nc3ccc(Cl)c(C(F)(F)F)c3)c2)cn1")
-78.3
>>> quantitative_result("CN1CCN(c2nc(-c3csc(-c4ccccc4)n3)cc3ccccc23)CC1")
-38.4
>>> quantitative_result("CCOC(=O)C(=O)CC(=O)N1C(=S)NC(=O)C1CC(C)C (stereo not given)")
96.3
>>> quantitative_result("CCCCCc1ccc(S(=O)(=O)Nc2cc(-c3csc(NC(=O)CN4CCN(C)CC4)n3)ccc2OC)cc1")
-58.5
>>> quantitative_result("Cc1cc(C)c2sc(=O)n(Cc3nnc(SCCC(=O)O)o3)c2n1")
95.5

Exam item: Which growth is listed for `COc1cc(-c2nc(SC(C)C)n(C(C)C)c(=O)c2C#N)ccc1OCc1ccccc1` ?
Marked response: 90.4

Exam item: Can you handle CCCn1cnc2c(c1=N)C(c1ccc(Cl)cc1)c1sc3c(CC)cccc3c1O2 (stereo not given) next?
Marked response: 12.8

Exam item: Can you handle `CC(=O)O[C@@H]1C(=O)N(c2cnccn2)[C@H]1c1ccccc1[N+](=O)[O-]` next?
Marked response: 30

Exam item: Can you handle `O=C(NNc1nc2cc(F)ccc2n2c(CN3CCCC3)ccc12)c1cnccn1` next?
Marked response: 17.9
